Ref: ChEMBL document CHEMBL1151098

Molecular target: Polyunsaturated fatty acid 5-lipoxygenase (Rattus norvegicus)
Sequence (P12527 whole entry): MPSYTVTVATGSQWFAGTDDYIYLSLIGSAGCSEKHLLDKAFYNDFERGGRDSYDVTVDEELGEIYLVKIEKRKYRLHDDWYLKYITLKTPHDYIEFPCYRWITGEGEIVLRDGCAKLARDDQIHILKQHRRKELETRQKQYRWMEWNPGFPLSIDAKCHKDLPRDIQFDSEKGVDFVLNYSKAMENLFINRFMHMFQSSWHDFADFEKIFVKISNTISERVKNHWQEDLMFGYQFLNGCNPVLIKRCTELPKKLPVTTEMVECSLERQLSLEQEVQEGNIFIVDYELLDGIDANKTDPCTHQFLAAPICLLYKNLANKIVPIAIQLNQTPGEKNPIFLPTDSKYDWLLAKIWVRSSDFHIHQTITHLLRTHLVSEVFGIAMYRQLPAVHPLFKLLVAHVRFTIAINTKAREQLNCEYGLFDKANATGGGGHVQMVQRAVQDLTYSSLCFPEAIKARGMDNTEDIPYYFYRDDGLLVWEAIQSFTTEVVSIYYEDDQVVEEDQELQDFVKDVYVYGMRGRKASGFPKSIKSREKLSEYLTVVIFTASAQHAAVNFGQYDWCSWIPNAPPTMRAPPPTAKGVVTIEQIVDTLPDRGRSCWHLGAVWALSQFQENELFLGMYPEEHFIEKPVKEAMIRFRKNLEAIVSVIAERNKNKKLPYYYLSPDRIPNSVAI
Experiment: Inhibitory activity against 5-lipoxygenase in rat neutrophils as inhibition of A 23,187-induced LTB4 production
Returns: string. Value is y if measured IC50 is below 3 µM, and n if it is greater than or equal to it.

Before answering, review these 6 worked examples.
[[record]]
compound = "COc1cc2c3c(c1)c(C)c(-c1cc(C)c(O)c(C)c1)n3CC(CCN1CCN(c3cc(C)ccn3)CC1)O2 (stereo not drawn)"
cat = "n"

[[record]]
compound = "Cc1cccc(N2CCN(CCC3Cn4c(-c5ccc(O)cc5)c(C)c5cccc(c54)O3)CC2)n1 (stereo not drawn)"
cat = "n"

[[record]]
compound = "Cc1ccc(N2CCN(CCC3Cn4c(-c5ccc(O)cc5)c(C)c5cccc(c54)O3)CC2)nc1 (stereo not drawn)"
cat = "n"

[[record]]
compound = "COc1cc(-c2c(C)c3cccc4c3n2CC(CCN2CCN(c3cc(C)ccn3)CC2)O4)ccc1O (stereo not drawn)"
cat = "n"

[[record]]
compound = "Cc1ccnc(N2CCN(CCC3Cn4c(-c5ccc(O)c(O)c5)c(C)c5cccc(c54)O3)CC2)c1 (stereo not drawn)"
cat = "y"

[[record]]
compound = "Cc1ccnc(N2CCN(CCC3Cn4c(-c5cc(C)c(O)c(C)c5)c(C)c5cc(O)cc(c54)O3)CC2)c1 (stereo not drawn)"
cat = "y"


Moving on to the next compound.
Dear colleague, could you confirm whether IC50 of Cc1c(-c2ccc(O)cc2)n2c3c(cccc13)OC(CCN1CCN(c3ccccn3)CC1)C2 (stereo not drawn) falls below 3 µM? Thanks.
y
